Experimental target: Prostaglandin E2 receptor EP4 subtype (Homo sapiens, UniProt P35408)
Sequence (P35408 whole entry): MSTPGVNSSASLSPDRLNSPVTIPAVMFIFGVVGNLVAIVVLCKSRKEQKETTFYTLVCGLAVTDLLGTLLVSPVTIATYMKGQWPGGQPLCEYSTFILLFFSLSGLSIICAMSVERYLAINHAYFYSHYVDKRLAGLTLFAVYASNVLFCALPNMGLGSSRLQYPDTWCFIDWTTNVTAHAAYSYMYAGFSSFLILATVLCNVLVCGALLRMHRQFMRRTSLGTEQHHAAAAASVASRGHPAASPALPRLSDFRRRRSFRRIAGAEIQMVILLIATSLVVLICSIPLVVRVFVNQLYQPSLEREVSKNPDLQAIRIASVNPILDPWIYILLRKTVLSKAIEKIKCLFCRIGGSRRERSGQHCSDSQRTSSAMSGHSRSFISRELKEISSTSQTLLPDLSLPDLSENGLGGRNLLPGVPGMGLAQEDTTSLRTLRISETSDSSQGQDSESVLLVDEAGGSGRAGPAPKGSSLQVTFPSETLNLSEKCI
Label TRUE when Ki < 3 µM; otherwise FALSE.

Example cases with answers are listed next.
Cc1cccc(/C=C/C(O)c2ccccc2/C=C/C(=O)O)c1OCc1c(Cl)cccc1Cl (stereo not drawn) = TRUE
Cc1cccc(C(O)/C=C/c2ccccc2/C=C/C(=O)O)c1OCc1c(Cl)cccc1Cl (stereo not drawn) = TRUE
Cc1cccc(/C=C\Cc2ccccc2C(=O)O)c1OCc1ccccc1.Cc1cccc(C/C=C/c2ccccc2C(=O)O)c1OCc1ccccc1 = FALSE
O=C(O)/C=C/c1ccccc1/C=C/Cc1ccccc1OCc1ccccc1.O=C(O)/C=C/c1ccccc1C/C=C\c1ccccc1OCc1ccccc1 = TRUE
O=C(O)/C=C/c1ccccc1/C=C/c1ccccc1OCc1ccccc1 = TRUE

Please check: Ki for "Cc1cccc(/C=C/Cc2ccc(/C=C/C(=O)O)cc2)c1OCc1ccccc1.Cc1cccc(C/C=C\c2ccc(/C=C/C(=O)O)cc2)c1OCc1ccccc1" , strictly under 3 µM or not?
FALSE

Please check: Ki for "Cc1cccc(/C=C/Cc2cccc(/C=C/C(=O)O)c2)c1OCc1ccccc1.Cc1cccc(C/C=C/c2cccc(/C=C/C(=O)O)c2)c1OCc1ccccc1" , strictly under 3 µM or not?
FALSE

Please check: Ki for "O=C(O)/C=C/c1ccccc1/C=C/Cc1cccc(OCc2ccccc2)c1.O=C(O)/C=C/c1ccccc1C/C=C\c1cccc(OCc2ccccc2)c1" , strictly under 3 µM or not?
TRUE
